- assayTarget: TrkB (Homo sapiens (Human), UniProt Q16620 32-430)
- Sequence (Q16620 32-430 limits assumed): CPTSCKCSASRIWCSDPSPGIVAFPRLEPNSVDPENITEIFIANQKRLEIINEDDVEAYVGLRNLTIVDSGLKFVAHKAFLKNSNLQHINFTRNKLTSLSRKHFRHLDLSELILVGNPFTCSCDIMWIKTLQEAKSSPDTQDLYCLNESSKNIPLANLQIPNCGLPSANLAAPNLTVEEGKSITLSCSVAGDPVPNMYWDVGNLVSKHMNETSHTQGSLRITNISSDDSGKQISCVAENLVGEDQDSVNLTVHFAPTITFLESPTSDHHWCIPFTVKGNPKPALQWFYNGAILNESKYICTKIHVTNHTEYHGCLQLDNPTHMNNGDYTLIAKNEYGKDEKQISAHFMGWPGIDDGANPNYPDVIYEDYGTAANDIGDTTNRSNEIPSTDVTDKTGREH
- testProtocol: koff of Fab at 25 C; T1/2=Log2/koff
Recorded T1/2 determines the label; the label ranges are lower (below 4 min), middle (4 min to below 6 min), upper (6 min or more)

Assign a bin to 11-G10 (Fab, V domains shown, Fab) VH: QVQLVQSGAEVKKPGASVKVSCKASGYTFTNYDIIWVRQAPGQGLEWMGYINPYNGRREYNEKFKGRVTMTRDTSTSTVYMELSSLRSEDTAVYYCARLLKYRRFRYYAIDYWGQGTTVTVSS VL: DIQMTQSPSSLSASVGDRVTITCRASENVYSNLAWYQQKPGKAPKLLIYAASNLQSGVPSRFSGSGSGTDFTFTISSLQPEDIATYYCQHFWGSPFTFGQGTKLEIK lower

Assign a bin to 11-D8 (Fab, V domains shown, Fab) VH: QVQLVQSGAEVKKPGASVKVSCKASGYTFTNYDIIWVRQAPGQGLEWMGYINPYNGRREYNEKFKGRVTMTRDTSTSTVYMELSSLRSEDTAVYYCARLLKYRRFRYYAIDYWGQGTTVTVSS VL: DIQMTQSPSSLSASVGDRVTITCRASTNVYSNLAWYQQKPGKAPKLLIYAASNLQSGVPSRFSGSGSGTDFTFTISSLQPEDIATYYCQHFWGSPFTFGQGTKLEIK lower

Assign a bin to 16-F4 (Fab, V domains shown, Fab) VH: QVQLVQSGAEVKKPGASVKVSCKASGYTFTNYDIIWVRQAPGQGLEWMGYINPYNDGTKYNEKFKGRVTMTRDTSTSTVYMELSSLRSEDTAVYYCARLLKYRRFRYYAIDYWGQGTTVTVSS VL: DIQMTQSPSSLSASVGDRVTITCRASENVYSNLAWYQQKPGKAPKLLIYAASNLADGVPSRFSGSGSGTDFTFTISSLQPEDIATYYCQHFWTSPFTFGQGTKLEIK middle

Assign a bin to 4B12-6 (Fab, V domains shown, Fab) VH: QVQLVQSGAEVKKPGASVKVSCKASGYTFTNYDIIWVRQAPGQGLEWMGYINPYNGGREYNEKFKGRVTMTRDTSTSTVYMELSSLRSEDTAVYYCARLLKYRRFRYYAIDYWGQGTTVTVSS VL: DIQMTQSPSSLSASVGDRVTITCRASEPVYSNVAWYQQKPGKAPKLLIYAASNLQSGVPSRFSGSGSGTDYTFTISSLQPEDIATYYCQHFWGSPFTFGQGTKLEIK lower

Assign a bin to 4B12-28 (Fab, V domains shown, Fab) VH: QVQLVQSGAEVKKPGASVKVSCKASGYTFTNYDIIWVRQAPGQGLEWMGYINPYNGRREYNEKFKGRVTMTRDTSTSTVYMELSSLRSEDTAVYYCARLLKYRRERYYAIDYWGQGTTVTVSS VL: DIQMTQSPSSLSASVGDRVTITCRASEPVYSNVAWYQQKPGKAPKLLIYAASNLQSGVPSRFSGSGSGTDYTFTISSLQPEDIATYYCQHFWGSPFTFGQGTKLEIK middle

Assign a bin to 13-C7 (Fab, V domains shown, Fab) VH: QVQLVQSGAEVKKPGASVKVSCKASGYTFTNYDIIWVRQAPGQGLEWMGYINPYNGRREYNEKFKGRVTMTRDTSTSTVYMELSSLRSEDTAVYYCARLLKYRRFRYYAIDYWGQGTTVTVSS VL: DIQMTQSPSSLSASVGDRVTITCRASEPVYSNLAWYQQKPGKAPKLLIYAASNLQSGVPSRFSGSGSGTDYTFTISSLQPEDIATYYCQHFWYSPFTFGQGTKLEIK upper

Assign a bin to 4B12-8 (Fab, V domains shown, Fab) VH: QVQLVQSGAEVKKPGASVKVSCKASGYTFTNYDIIWVRQAPGQGLEWMGYINPYNGRRKYNEKFKGRVTMTRDTSTSTVYMELSSLRSEDTAVYYCARLLKYRRFRYYAIDYWGQGTTVTVSS VL: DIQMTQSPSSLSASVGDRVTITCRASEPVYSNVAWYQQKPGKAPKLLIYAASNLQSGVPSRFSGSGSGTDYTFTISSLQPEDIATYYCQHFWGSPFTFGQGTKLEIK upper

Assign a bin to 5-B2 (Fab, V domains shown, Fab) VH: QVQLVQSGAEVKKPGASVKVSCKASGYTFTNYVILWVRQAPGQGLEWMGYINPYNDGTKYNEKFKGRVTMTRDTSTSTVYMELSSLRSEDTAVYYCARLLKYRRFSYYAIDYWGQGTTVTVSS VL: DIQMTQSPSSLSASVGDRVTITCRASENVYSNLAWYQQKPGKAPKLLIYAASNLQSGVPSRFSGSGSGTDFTFTISSLQPEDIATYYCQHFDYSPFTFGQGTKLEIK lower

Assign a bin to 4B12-26 (Fab, V domains shown, Fab) VH: QVQLVQSGAEVKKPGASVKVSCKASGYTFTNYDIIWVRQAPGQGLEWMGYINPYNGRREYNEKFKGRVTMTRDTSTSTVYMELSSLRSEDTAVYYCARLLKYRRFAYYAIDYWGQGTTVTVSS VL: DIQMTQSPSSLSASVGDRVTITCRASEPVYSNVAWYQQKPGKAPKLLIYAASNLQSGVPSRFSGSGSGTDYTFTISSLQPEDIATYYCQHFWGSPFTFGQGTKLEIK upper
